- tgt: P38-b (Homo sapiens)
- Sequence (Q15759 whole entry, species assumed): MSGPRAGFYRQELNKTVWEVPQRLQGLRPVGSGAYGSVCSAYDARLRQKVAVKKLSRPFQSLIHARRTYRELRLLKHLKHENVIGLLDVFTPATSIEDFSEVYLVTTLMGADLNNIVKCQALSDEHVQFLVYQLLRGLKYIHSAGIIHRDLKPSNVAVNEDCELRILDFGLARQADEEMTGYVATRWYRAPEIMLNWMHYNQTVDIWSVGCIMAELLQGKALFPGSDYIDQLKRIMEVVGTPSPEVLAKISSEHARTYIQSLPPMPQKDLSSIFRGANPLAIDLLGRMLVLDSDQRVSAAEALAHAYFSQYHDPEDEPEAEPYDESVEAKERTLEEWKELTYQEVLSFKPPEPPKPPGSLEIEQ
- experiment.description: Kinase panel (mobility shift)
- Format: biochemical
observable: inhibition at 5 µM

Sample records with inhibition at 5 µM:
- mol.smiles: "CNC(=O)c1cc(Oc2ccc(NC(=O)c3nc(S(C)(=O)=O)sc3-c3ccc(F)cc3)cc2F)ccn1"
  inhibition at 5 µM: "< 50%"
- mol.smiles: "CNC(=O)c1ccc(Oc2ccc(NC(=O)c3nc(Cl)oc3-c3ccc(F)cc3)c(F)c2)cn1"
  inhibition at 5 µM: "< 50%"
- mol.smiles: "CNC(=O)c1cc(Oc2ccc(NC(=O)c3nc(SC)oc3-c3ccc(F)cc3F)cc2F)ccn1"
  inhibition at 5 µM: "< 50%"
- mol.smiles: "CSc1nc(C(=O)Nc2ccc(Oc3ccnc(C(=O)NC4CNC4)c3)c(F)c2)c(-c2ccc(F)cc2)o1"
  inhibition at 5 µM: "80 to 89%"
- mol.smiles: "CNC(=O)c1cc(Oc2ccc(NC(=O)c3nc(OC)oc3-c3ccc(F)s3)cc2F)ccn1"
  inhibition at 5 µM: "< 50%"

Please fill in: inhibition at 5 µM reported for `CNC(=O)c1cc(Oc2ccc(NC(=O)c3nc(COC)oc3-c3ccc(F)cc3)cc2F)ccn1` = 50 to 79%

Please fill in: inhibition at 5 µM reported for `CNC(=O)c1cc(Oc2ccc(NC(=O)c3nc(SC)oc3-c3ccc(F)s3)cc2F)ccn1` = < 50%

Please fill in: inhibition at 5 µM reported for `CSc1nc(C(=O)Nc2ccc(Oc3ccnc(C(=O)NC4CNC4)c3)c(F)c2)c(-c2ccc(F)s2)o1` = < 50%

Please fill in: inhibition at 5 µM reported for `CNC(=O)c1cc(Oc2ccc(NC(=O)c3nc(SC(C)C)oc3-c3ccc(F)cc3)cc2F)ccn1` = 50 to 79%

Please fill in: inhibition at 5 µM reported for `CNC(=O)c1cc(Oc2ccc(NC(=O)c3nc(SC)oc3-c3ccc(F)c(F)c3)cc2)ccn1` = 50 to 79%

Please fill in: inhibition at 5 µM reported for `CNC(=O)c1cc(Oc2ccc(NC(=O)c3nc(SC)oc3-c3ccc(F)cc3F)cc2)ccn1` = < 50%

Please fill in: inhibition at 5 µM reported for `COc1nc(C(=O)Nc2ccc(Oc3ccnc(C(=O)NCC(F)(F)F)c3)c(F)c2)c(-c2ccc(F)cc2)o1` = < 50%

Please fill in: inhibition at 5 µM reported for `CNC(=O)c1cc(Oc2ccc(NC(=O)c3nc(NC)sc3-c3ccc(F)cc3C)cc2F)ccn1` = < 50%

Please fill in: inhibition at 5 µM reported for `CNC(=O)c1cc(Oc2ccc(NC(=O)c3nc(NC)sc3-c3ccc(F)cc3F)cc2F)ccn1` = < 50%

Please fill in: inhibition at 5 µM reported for `[2H]C([2H])([2H])NC(=O)c1cc(Oc2ccc(NC(=O)c3nc(SC)oc3-c3ccc(F)s3)cc2F)ccn1` = < 50%

----------
- tgt: UniProt:O43353
- Sequence (O43353 whole entry, species assumed): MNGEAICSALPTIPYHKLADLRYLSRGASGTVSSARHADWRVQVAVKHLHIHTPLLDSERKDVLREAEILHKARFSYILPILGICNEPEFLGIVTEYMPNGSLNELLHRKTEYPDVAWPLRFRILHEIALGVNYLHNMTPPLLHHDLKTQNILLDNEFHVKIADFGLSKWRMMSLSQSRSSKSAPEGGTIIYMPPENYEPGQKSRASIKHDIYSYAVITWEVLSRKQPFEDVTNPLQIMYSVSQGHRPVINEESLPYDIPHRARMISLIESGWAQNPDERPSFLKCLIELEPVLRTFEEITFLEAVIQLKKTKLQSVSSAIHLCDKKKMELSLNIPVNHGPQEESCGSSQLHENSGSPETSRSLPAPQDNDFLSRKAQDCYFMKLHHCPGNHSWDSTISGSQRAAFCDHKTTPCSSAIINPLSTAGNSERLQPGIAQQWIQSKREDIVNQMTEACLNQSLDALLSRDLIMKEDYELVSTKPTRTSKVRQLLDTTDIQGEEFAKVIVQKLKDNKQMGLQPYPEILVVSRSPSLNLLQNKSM
- experiment.description: Kinase panel (mobility shift)
- Assay type: biochemical
observable: inhibition at 5 µM

Sample records with inhibition at 5 µM:
- compound: "CNC(=O)c1cc(Oc2ccc(NC(=O)c3nc(SC)oc3-c3ccc(F)cc3F)cc2)ccn1 [Compound 6]"
  tgt: "UniProt:O43353"
  inhibition at 5 µM: "≥ 95%"
- compound: "CNC(=O)c1cc(Oc2ccc(NC(=O)c3nc(S(C)(=O)=O)sc3-c3ccc(F)cc3)cc2F)ccn1 [Compound 13]"
  tgt: "UniProt:O43353"
  inhibition at 5 µM: "80 to 89%"
- compound: "CNC(=O)c1cc(Oc2c(F)cc(NC(=O)c3nc(NC)sc3-c3ccc(F)cc3)cc2F)ccn1 [Compound 19]"
  tgt: "UniProt:O43353"
  inhibition at 5 µM: "50 to 79%"
- compound: "[2H]C([2H])([2H])NC(=O)c1cc(Oc2ccc(NC(=O)c3nc(SC)oc3-c3ccc(F)s3)cc2F)ccn1 [Compound 35]"
  tgt: "UniProt:O43353"
  inhibition at 5 µM: "50 to 79%"
- compound: "CNC(=O)c1cc(Oc2ccc(NC(=O)c3nc(NC)sc3-c3ccc(F)cc3C)cc2F)ccn1 [Compound 23]"
  tgt: "UniProt:O43353"
  inhibition at 5 µM: "80 to 89%"

Please fill in: inhibition at 5 µM reported for CNC(=O)c1cc(Oc2ccc(NC(=O)c3nc(OC4CC4)oc3-c3ccc(F)cc3)cc2F)ccn1 [Compound 32] = 50 to 79%

Please fill in: inhibition at 5 µM reported for CSc1nc(C(=O)Nc2ccc(Oc3ccnc(C(=O)NC4CNC4)c3)c(F)c2)c(-c2ccc(F)s2)o1 [Compound 27] = < 50%

Please fill in: inhibition at 5 µM reported for CNC(=O)c1cc(Oc2ccc(NC(=O)c3nc(OC)oc3-c3ccc(F)s3)cc2F)ccn1 [Compound 25] = < 50%

Please fill in: inhibition at 5 µM reported for COc1nc(C(=O)Nc2ccc(Oc3ccnc(C(=O)NCC(F)(F)F)c3)c(F)c2)c(-c2ccc(F)cc2)o1 [Compound 43] = < 50%

Please fill in: inhibition at 5 µM reported for CSc1nc(C(=O)Nc2ccc(Oc3ccnc(-c4cnn(C)c4)c3)c(F)c2)c(-c2ccc(F)cc2)o1 [Compound 11] = 50 to 79%

----------
- tgt: DDR2 (Homo sapiens)
- Sequence (Q16832 22-855): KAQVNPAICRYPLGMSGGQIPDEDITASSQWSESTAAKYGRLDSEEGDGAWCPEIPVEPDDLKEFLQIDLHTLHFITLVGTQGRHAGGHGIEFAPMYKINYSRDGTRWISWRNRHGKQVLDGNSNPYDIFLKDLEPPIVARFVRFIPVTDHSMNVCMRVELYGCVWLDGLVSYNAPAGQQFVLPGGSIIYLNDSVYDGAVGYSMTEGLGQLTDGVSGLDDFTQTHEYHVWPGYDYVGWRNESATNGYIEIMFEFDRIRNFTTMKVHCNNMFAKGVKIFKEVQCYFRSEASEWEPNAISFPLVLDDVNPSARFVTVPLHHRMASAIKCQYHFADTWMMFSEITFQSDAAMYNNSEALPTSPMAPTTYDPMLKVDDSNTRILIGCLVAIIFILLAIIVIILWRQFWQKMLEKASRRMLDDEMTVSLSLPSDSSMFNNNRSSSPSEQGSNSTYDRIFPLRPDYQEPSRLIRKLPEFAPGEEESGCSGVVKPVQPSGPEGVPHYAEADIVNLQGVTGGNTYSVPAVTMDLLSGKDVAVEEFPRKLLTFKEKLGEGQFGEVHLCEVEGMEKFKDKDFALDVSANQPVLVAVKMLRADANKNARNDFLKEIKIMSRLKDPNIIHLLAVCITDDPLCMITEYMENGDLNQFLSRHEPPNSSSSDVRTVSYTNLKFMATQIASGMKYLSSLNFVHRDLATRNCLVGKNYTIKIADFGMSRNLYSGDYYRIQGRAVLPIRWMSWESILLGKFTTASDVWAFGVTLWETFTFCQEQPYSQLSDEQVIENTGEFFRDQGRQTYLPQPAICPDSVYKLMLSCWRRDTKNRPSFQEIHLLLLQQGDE
- experiment.description: Kinase panel (mobility shift)
- Assay type: biochemical
observable: inhibition at 5 µM

Sample records with inhibition at 5 µM:
- mol.smiles: "CNC(=O)c1ccc(Oc2ccc(NC(=O)c3nc(Cl)oc3-c3ccc(F)cc3)c(F)c2)cn1"
  inhibition at 5 µM: "< 50%"
- mol.smiles: "CSc1nc(C(=O)Nc2ccc(Oc3ccnc(C(=O)NCCN(C)C)c3)c(F)c2)c(-c2ccc(F)cc2)o1"
  inhibition at 5 µM: "50 to 79%"
- mol.smiles: "CSc1nc(C(=O)Nc2ccc(Oc3ccnc(C(=O)NC4COC4)c3)c(F)c2)c(-c2ccc(F)s2)o1"
  inhibition at 5 µM: "< 50%"

Please fill in: inhibition at 5 µM reported for `CNC(=O)c1cc(Oc2ccc(NC(=O)c3nc(SC)oc3-c3ccc(F)s3)cc2F)ccn1` = < 50%

----------
Each entry below lists one item and its recorded inhibition at 5 µM value.
- tgt: P38-b (Homo sapiens)
- experiment.description: Kinase panel (mobility shift)
- Type: biochemical

Sample records with inhibition at 5 µM:
- mol.smiles: "CSc1nc(C(=O)Nc2ccc(Oc3ccnc(C(=O)NC4COC4)c3)c(F)c2)c(-c2ccc(F)c(F)c2)o1"
  inhibition at 5 µM: "< 50%"
- mol.smiles: "CNC(=O)c1cc(Oc2ccc(NC(=O)c3nc(SC)oc3-c3ccc(Cl)s3)cc2)ccn1"
  inhibition at 5 µM: "< 50%"
- mol.smiles: "CSc1nc(C(=O)Nc2ccc(Oc3ccnc(-c4cnn(C)c4)c3)c(F)c2)c(-c2ccc(F)cc2)o1"
  inhibition at 5 µM: "80 to 89%"

The recorded inhibition at 5 µM with P38-b (Homo sapiens) for `CNC(=O)c1cc(Oc2ccc(NC(=O)c3nc(SC)oc3-c3ccc(F)cc3Cl)cc2)ccn1` was < 50%

The recorded inhibition at 5 µM with P38-b (Homo sapiens) for `CSc1nc(C(=O)Nc2ccc(Oc3ccnc(C(=O)NC4COC4)c3)c(F)c2)c(-c2ccc(F)s2)o1` was < 50%

The recorded inhibition at 5 µM with P38-b (Homo sapiens) for `CSc1nc(C(=O)Nc2ccc(Oc3ccnc(C(=O)NC4CCN(C)CC4)c3)c(F)c2)c(-c2ccc(F)cc2)o1` was 80 to 89%

The recorded inhibition at 5 µM with P38-b (Homo sapiens) for `CSc1nc(C(=O)Nc2ccc(Oc3ccnc(C(=O)NCCN(C)C)c3)c(F)c2)c(-c2ccc(F)cc2)o1` was 80 to 89%

Each recorded value in this set is attributed to patent US11629143B2.
